- Method Description: qHTS RealTime-Glo MT Cell Viability Assay in HEK293 cells - 16 hour (AID 1224872); also: nearly all actives have a fitted effect of over 50% in size
- Setup Conditions: RealTime-Glo luminescence; series mostly up to 76.8 µM
Records with an inconclusive call do not appear. Activity calls are given as the source filed them. Calls follow the shape of the dose curve; as a rule, active = well fitted cell-killing curve with a large enough effect in the repeat runs; inconclusive = weak or mixed curves, or effect the other way; inactive = flat fitted curve, though single readings scatter.
Your reply should match one of these outcome classes. active, inactive

Sample answers from the record:
{"columns": ["Compound", "Answer Label"],
 "data": [
  ["CCCCCCCCCCCSCC(=O)O", "inactive"],
  ["COc1cc(NS(=O)(=O)c2ccc(N)cc2)nc(C)n1", "inactive"],
  ["ClC1=C(Cl)C1(Cl)Cl", "inactive"]
]}

Lab log entry: "O=C(/C=C/c1ccc([N+](=O)[O-])cc1)c1ccccc1" — outcome as called in the assay?
active

Lab log entry: C[C@@H]1[C@H](O)[C@@H](C)/C=C/C=C\C=C\C=C\C=C\C=C\C=C\[C@H](O[C@@H]2O[C@H](C)[C@@H](O)[C@H](N)[C@@H]2O)C[C@@H]2O[C@](O)(C[C@@H](O)C[C@@H](O)[C@H](O)CC[C@@H](O)C[C@@H](O)CC(=O)O[C@H]1C)C[C@H](O)[C@H]2C(=O)O (stereo in doubt) — outcome as called in the assay?
inactive

Lab log entry: "NC(=O)c1ccccc1[N+](=O)[O-]" — outcome as called in the assay?
inactive

Lab log entry: O=C(NC(Cc1cc(=O)[nH]c2ccccc12)C(=O)O)c1ccc(Cl)cc1 (stereo not drawn) — outcome as called in the assay?
inactive

Lab log entry: "CCN(Cc1cccc(S(=O)(=O)O)c1)c1ccc(C(=C2C=CC(=[N+](CC)Cc3cccc(S(=O)(=O)O)c3)C=C2)c2ccc(O)cc2S(=O)(=O)[O-])cc1" — outcome as called in the assay?
inactive
